Entries annotated with measured growth AUC
Test system: Streptococcus salivarius
Assay: growth AUC relative to DMSO control (median of replicates) (fraction); higher = more growth (less inhibition), active = hit call of the paper
Conditions: 20 µM; 24 h
valueType: growth AUC

INSERT INTO assay_data (querysmiles, valuetype, resultnumber) VALUES
  ('Nc1cccc(O)c1', 'growth AUC', 1.02),
  ('CN(C)C(=O)SCCCCOc1ccccc1', 'growth AUC', 0.99),
  ('CC[N+](CC)(CC(=O)Nc1c(C)cccc1C)Cc1ccccc1.O=C([O-])c1ccccc1', 'growth AUC', 1.01),
  ('O=C(O)[C@@H](S)[C@@H](S)C(=O)O', 'growth AUC', 0.997);

###

Tested on: Bacteroides stercoris
Test: growth AUC relative to DMSO control (median of replicates) (fraction); higher = more growth (less inhibition), active = hit call of the paper;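 active = AUC reduced over 20% with Padj below 0.05 in at least 2 of 3 replicates; inactive = otherwise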
Details: 20 µM; 24 h
Possible outcomes: active, inactive

INSERT INTO measurements (compound, testtarget, labelclass) VALUES
  ('COc1ccc(NC(=O)N(C)C)cc1Cl', 'Bacteroides stercoris', 'inactive'),
  ('O=C(O)Cc1c(Cl)ccc(Cl)c1Cl', 'Bacteroides stercoris', 'inactive'),
  ('CNC(=O)Nc1nc2ccccc2s1', 'Bacteroides stercoris', 'inactive'),
  ('CC(C)CCCCCOC(=O)C(C)Oc1ccc(Cl)cc1Cl (stereo unspecified)', 'Bacteroides stercoris', 'inactive'),
  ('COC(=O)Cc1cccc2ccccc12', 'Bacteroides stercoris', 'inactive'),
  ('CCCCOCCOC(=O)COc1nc(Cl)c(Cl)cc1Cl', 'Bacteroides stercoris', 'inactive'),
  ('CCCCCCCCSCCO', 'Bacteroides stercoris', 'inactive'),
  ('CS(=O)(=O)c1ccc(C(=O)O)c(N)c1', 'Bacteroides stercoris', 'inactive'),
  ('CC(C)N(C(=O)CS(=O)(=O)[O-])c1ccc(F)cc1.[Na+]', 'Bacteroides stercoris', 'inactive'),
  ('CCOc1ccc2c(c1)C(C)=CC(C)(C)N2', 'Bacteroides stercoris', 'inactive'),
  ('O=C(NC(=O)c1c(F)cccc1F)Nc1cc(C(F)(F)F)cc(C(F)(F)F)c1Cl', 'Bacteroides stercoris', 'inactive'),
  ('CCCN(CCOc1c(Cl)cc(Cl)cc1Cl)C(N)=O', 'Bacteroides stercoris', 'inactive'),
  ('CCc1cccc(CC)c1N(COC)C(=O)CS(=O)(=O)[O-].[Na+]', 'Bacteroides stercoris', 'inactive'),
  ('Oc1cccc2ccccc12', 'Bacteroides stercoris', 'inactive'),
  ('Cc1cccc(C)c1N(CC(=O)O)C(=O)CS(=O)(=O)[O-].[Na+]', 'Bacteroides stercoris', 'inactive'),
  ('N#Cc1ccc(CC(=NNC(=O)Nc2ccc(OC(F)(F)F)cc2)c2cccc(C(F)(F)F)c2)cc1 (mixture of isomers)', 'Bacteroides stercoris', 'inactive'),
  ('CCSC(=O)N(CC(C)C)CC(C)C', 'Bacteroides stercoris', 'inactive'),
  ('O.O=C(Nc1ccc([N+](=O)[O-])cc1Cl)c1cc(Cl)ccc1O', 'Bacteroides stercoris', 'active'),
  ('N#Cc1c(N)nc(NC2CC2)nc1N', 'Bacteroides stercoris', 'inactive'),
  ('CP(=O)(O)CCC(=O)O', 'Bacteroides stercoris', 'inactive'),
  ('C=C1C[C@]23C[C@@]1(O)CC[C@H]2[C@@]12C=C[C@H](O)[C@@](C)(C(=O)O1)[C@H]2[C@@H]3C(=O)O', 'Bacteroides stercoris', 'inactive'),
  ('COCC(=O)N(c1c(C)cccc1C(=O)O)C(C)C(=O)O (stereo unspecified)', 'Bacteroides stercoris', 'inactive'),
  ('O=S(=O)(Cc1ccc(Cl)cc1)c1ccc(Cl)cc1', 'Bacteroides stercoris', 'inactive'),
  ('Cc1ccc(C(C)NC(=O)[C@@H](NC(=O)OC(C)C)C(C)C)cc1 (stereo partly specified)', 'Bacteroides stercoris', 'inactive'),
  ('Cc1nn(C)c(OCC(=O)c2ccccc2)c1C(=O)c1ccc(Cl)cc1Cl', 'Bacteroides stercoris', 'inactive'),
  ('Oc1ccc2nc(-c3cscn3)[nH]c2c1', 'Bacteroides stercoris', 'inactive'),
  ('Cc1cccc(C)c1N(C(=O)CCl)C1CCOC1=O (stereo unspecified)', 'Bacteroides stercoris', 'inactive'),
  ('O=C1NC(=O)c2ccccc21', 'Bacteroides stercoris', 'inactive'),
  ('CCCCCCCCCC[N+](C)(C)Cc1ccccc1.[Cl-]', 'Bacteroides stercoris', 'inactive'),
  ('NC1=C(Cl)C(=O)c2ccccc2C1=O', 'Bacteroides stercoris', 'inactive'),
  ('CCOc1ccc(C2(C(=O)OC(C#N)c3cccc(Oc4ccccc4)c3)CC2(Cl)Cl)cc1 (stereo unspecified)', 'Bacteroides stercoris', 'inactive'),
  ('COC1CCC2(CC1)NC(=O)C(c1cc(C)ccc1C)C2O (stereo unspecified)', 'Bacteroides stercoris', 'inactive'),
  ('Cc1c(C(=O)c2c[nH]n(C)c2=O)ccc(S(C)(=O)=O)c1C1=NOCC1', 'Bacteroides stercoris', 'inactive'),
  ('COC(=O)Nc1ccc(Cl)c(Cl)c1', 'Bacteroides stercoris', 'inactive'),
  ('CC1(C)C(C(=O)OC(C#N)c2cccc(Oc3ccccc3)c2)C1C(Br)C(Br)(Br)Br (stereo unspecified)', 'Bacteroides stercoris', 'inactive'),
  ('CCc1cccc(C)c1N(COC(C)C)C(=O)CCl', 'Bacteroides stercoris', 'inactive');

###

Test system: Fusobacterium nucleatum subsp. animalis
Assay: growth AUC relative to DMSO control (median of replicates) (fraction); higher = more growth (less inhibition), active = hit call of the paper
Conditions: 20 µM; 24 h
Everything with growth AUC lower than 1 is n; everything else, including exactly 1, is y.

INSERT INTO results (compound, labelclass) VALUES
  ('C[S+](C)CCC(=O)O.[Cl-]', 'n'),
  ('CCc1cccc(CC)c1N(COC)C(=O)C(=O)O', 'y'),
  ('CCOC(=O)NCCOc1ccc(Oc2ccccc2)cc1', 'n'),
  ('COC(=O)c1ccc(C)cc1C1=NC(C)(C(C)C)C(=O)N1 (racemic)', 'n'),
  ('FC(F)(F)c1cccc(C(c2ccccc2)(c2ccccc2)n2cncn2)c1', 'n'),
  ('CCCCCCCC/C=C\CCCCCCCCCCCCC', 'n'),
  ('c1ccc2c(c1)Cc1ccccc1-2', 'y');

###

Tested on: Escherichia coli IAI1
Experiment: growth AUC relative to DMSO control (median of replicates) (fraction); higher = more growth (less inhibition), active = hit call of the paper
Details: 20 µM; 24 h
valueType: growth AUC

INSERT INTO assay_data (molecule, resultnumber) VALUES
  ('CCCCCCCCSCCO', 0.936),
  ('COC(=O)C(Cl)Cc1ccc(Cl)cc1 (configuration not stated)', 0.971),
  ('CCN(Cc1c(F)cccc1Cl)c1c([N+](=O)[O-])cc(C(F)(F)F)cc1[N+](=O)[O-]', 0.986),
  ('COC(=O)c1ccc(C)cc1C1=NC(C)(C(C)C)C(=O)N1 (racemic)', 0.97),
  ('c1ccc2c(c1)ccc1ccccc12', 1.01),
  ('N#Cc1ccc(CC(=NNC(=O)Nc2ccc(OC(F)(F)F)cc2)c2cccc(C(F)(F)F)c2)cc1 (mixture of isomers)', 1.02),
  ('CCS(=O)(=O)c1nnc(N(C)C(=O)NC)s1', 0.99);

###

Entries annotated with measured growth AUC
System: Escherichia coli IAI1
Assay: growth AUC relative to DMSO control (median of replicates) (fraction); higher = more growth (less inhibition), active = hit call of the paper
Conditions: 20 µM; 24 h
valueType: growth AUC

INSERT INTO measurements (molecule, valuetype, result) VALUES
  ('CCc1cccc(C)c1N(C(=O)CS(=O)(=O)[O-])C(C)COC.[Na+] (centres undefined)', 'growth AUC', '0.941 (inactive)'),
  ('CCNC(=O)[C@@H](C)OC(=O)Nc1ccccc1', 'growth AUC', '1.01 (inactive)'),
  ('C/C=C/C=C/CCCCCCCO', 'growth AUC', '0.983 (inactive)'),
  ('CCCCCCCC/C=C\CCCCCCCC(N)=O', 'growth AUC', '0.953 (inactive)');

###

Entries annotated with measured growth AUC
Tested on: Odoribacter splanchnicus
Test: growth AUC relative to DMSO control (median of replicates) (fraction); higher = more growth (less inhibition), active = hit call of the paper
Settings: 20 µM; 24 h
valueType: growth AUC

INSERT INTO measurements (compound, valuetype, resultnumber) VALUES
  ('CCCOC(=O)NCCCN(C)C', 'growth AUC', 1.01),
  ('Cc1cc(C)cc(OCC(C)Nc2nc(N)nc(C(C)(C)F)n2)c1 (configuration not stated)', 'growth AUC', 0.992),
  ('CCOC(=O)C(C)Oc1ccc(Oc2nc3ccc(Cl)cc3o2)cc1 (racemic)', 'growth AUC', 1.01),
  ('C[S+](C)CCC(=O)O.[Cl-]', 'growth AUC', 0.979),
  ('O=S(Cc1ccc(Cl)cc1)c1ccc(Cl)cc1 (configuration not stated)', 'growth AUC', 1.01),
  ('C[C@@]1(c2ccccc2)NC(=O)N(Nc2ccccc2)C1=O', 'growth AUC', 0.993),
  ('CCOC(=O)c1ccc(O)cc1', 'growth AUC', 0.988),
  ('Nc1cccc(O)c1', 'growth AUC', 0.975),
  ('O=S(=O)(Oc1ccc(Cl)cc1)c1ccccc1', 'growth AUC', 0.987),
  ('O=C(O)COc1ccc(Cl)c2cccnc12', 'growth AUC', 1.01),
  ('O=C(O)CNC(=O)c1cnccc1C(F)(F)F', 'growth AUC', 1.02),
  ('COC(=O)c1csc(C)c1S(=O)(=O)NC(=O)n1nc(OC)n(C)c1=O', 'growth AUC', 0.982);

Ref: the supplement of paper PMC12669032
